target: murine STING protein (amino acids 154-378) (Mus musculus (Mouse)); assay: Murine STING [3H] 2′,3′-cGAMP scintillation proximity competition binding assay; conditions: read-out: Murine Binding IC50
Sequence (Q3TBT3 154-378): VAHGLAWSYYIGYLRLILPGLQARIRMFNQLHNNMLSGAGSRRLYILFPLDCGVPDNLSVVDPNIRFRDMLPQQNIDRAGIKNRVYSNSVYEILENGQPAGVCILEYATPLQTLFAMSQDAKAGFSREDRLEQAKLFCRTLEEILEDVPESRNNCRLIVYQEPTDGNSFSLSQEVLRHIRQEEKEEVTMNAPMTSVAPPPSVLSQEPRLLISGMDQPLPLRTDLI
pIC50: −log10 of the molar value.
We begin with a simple list: items and their reported pIC50.

1) CO[C@H]1[C@H]2OP(=O)(S)OCc3nc4cncnc4n3CCOP(=O)(S)OC[C@H]1O[C@H]2n1cnc2c(=O)[nH]c(N)nc21 (single isomer, unassigned) [Example 27B] = > 6.00
2) Nc1nc2c(nc3n2CCOP(=O)(S)OC[C@H]2O[C@@H](n4cnc5c(N)ncnc54)[C@H](OP(=O)(S)OC3)[C@@H]2F)c(=O)[nH]1 (single isomer, unassigned) [Example 23D] = 4.00 to 5.00
3) Nc1nc2ncn([C@@H]3O[C@@H]4COP(=O)(S)OCCn5c(nc6cc(Cl)cnc65)COP(=O)(S)O[C@@H]3[C@@H]4F)c2c(=O)[nH]1 (single isomer, unassigned) [Example 13A] = > 6.00
4) Nc1nc2c(ncn2[C@@H]2O[C@@H]3COP(=O)(S)OCCn4c(nc5cnc(C6CC6)nc54)COP(=O)(S)O[C@@H]2[C@@H]3F)c(=O)[nH]1 (single isomer, unassigned) [Example 12C] = > 6.00
5) Nc1nc2c(ncn2[C@@H]2O[C@@H]3COP(=O)(S)OCCn4c(nc5c(=O)[nH]cnc54)COP(=O)(S)O[C@@H]2[C@@H]3F)c(=O)[nH]1 (single isomer, unassigned) [Example 3C] = > 6.00

So for Nc1nc2c(ncn2[C@@H]2O[C@@H]3COP(=O)(S)OCCn4c(nc5cncnc54)COP(=O)(S)O[C@@H]2[C@@H]3O)c(=O)[nH]1 (single isomer, unassigned) [Example 15D] , the logged pIC50 turned out to be > 6.00

So for Nc1nc2c(ncn2[C@@H]2O[C@@H]3COP(=O)(S)OCCn4nc(-c5ccncc5)nc4COP(=O)(S)O[C@@H]2[C@@H]3F)c(=O)[nH]1 (single isomer, unassigned) [Example 34B] , the logged pIC50 turned out to be 5.00 to 6.00
